All values here come from PubChem BioAssay (Tox21).

# test protocol: qHTS RealTime-Glo MT Cell Viability Assay in HepG2 cells - 8 hour (AID 1224873); also: % is scaled to controls: 0 for no effect and ±100 for the full control effect; nearly all actives have a fitted effect of over 55% in size
# measurement context: RealTime-Glo luminescence; series mostly up to 76.8 µM
# Excerpt: National Center for Advancing Translational Sciences [NCATS] NIH Chemical Genomics Center [NCGC] U.S. Environmental Protection Agency [EPA] National Institutes of Environmental Health Sciences [NIEHS] National Toxicology Program [NTP] U.S. Food and Drug Administration [FDA] Measure of cell viability is critical in the cell-base assay. Analysis of cell viability is necessary for the characterization of cell responses to cytotoxic drugs and environmental stress. […]
Inconclusive results are not listed. Calls of active or inactive are those of the source. Calls follow the shape of the dose curve; as a rule, active = well fitted cell-killing curve with a large enough effect in the repeat runs; inconclusive = weak or mixed curves; inactive = flat fitted curve, though single readings scatter.
property: viability change, negative = cytotoxic

Cc1oc(-c2ccccc2)nc1CCOc1cccc2c1ccn2CCC(=O)O : inactive
CCN(CC)CCOC(=O)C(Cc1cccc2ccccc12)CC1CCCO1 (stereo not given) : inactive
CCOC(=O)NCCOc1ccc(Oc2ccccc2)cc1 : inactive
C/C=C(/C(=C/C)c1ccc(OC(C)=O)cc1)c1ccc(OC(C)=O)cc1 : inactive
C/C(=C(\CCOP(=O)(O)O)SC(=O)c1ccccc1)N(C=O)Cc1cnc(C)nc1N : 2.94% [at 6.97 µM] (inactive)

Moving on to the next compound.
Recall and state the measured viability change, negative = cytotoxic for C=CCOc1ccccc1OCC(O)CNC(C)C (stereo not given) . inactive

----------
# tgt: Cytochrome P450 2D6 (Homo sapiens)
# test protocol: Cytochrome P450 Family 2 Subfamily D Member 6 (CYP2D6) small molecule antagonists: luciferase reporter qHTS assay (AID 1671196); also: nearly all actives have a fitted effect of over 50% in size
# measurement context: P450-Glo CYP2D6 enzyme assay, luciferin luminescence, 1 h; series mostly up to 115 µM
Inconclusive results are not listed. Calls of active or inactive are those of the source. Calls follow the shape of the dose curve; as a rule, active = well fitted inhibition curve with a large enough effect in the repeat runs; inconclusive = weak or mixed curves; inactive = no such curve, though single readings can be large or run the other way.
Select the matching outcome among active, inactive

Solved entries (count: 5):
Nc1cc(C(=O)O)c(O)c(S(=O)(=O)O)c1 : active
ClCCOCCOCCCl : inactive
CCCCCCCCCc1ccc(OCCOCCO)cc1 : active
CCCCc1ncc(/C=C(\Cc2cccs2)C(=O)O)n1Cc1ccc(C(=O)O)cc1 : inactive
CCCCCCCCCCCCCCCCCCOS(=O)(=O)O : inactive

Could you check what this test reported for CN1C[C@H]2c3ccccc3Oc3ccc(Cl)cc3[C@@H]2C1 ? active

What did this assay record as the result for Cc1ccc(C(C)OC(=O)C2(C)CCC(C(=O)O)C2(C)C)cc1 (stereo not drawn) ? inactive

Field: outcome | Entry: O=P(O)(OCc1ccccc1)OCc1ccccc1 inactive

// return assay outcome for CCO[Si](CCCCl)(OCC)OCC active

What did the test return for CC[N+](C)(CC)CCOC(=O)C(O)(c1ccccc1)C1CCCCC1 (stereo not drawn) ? active

Which outcome was entered for the molecule COC(C)OC in this test? inactive

Could you please tell me the result logged for CCOC(=O)C(F)(F)F in this assay? active

Tell me the assay call for CC(C)(COC(=O)c1ccccc1)COC(=O)c1ccccc1 please. inactive

----------
# test protocol: qHTS assay to identify aromatase inhibitors - cell viability counter screen (AID 743084);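 also: cells stimulated with testosterone during compound exposure; nearly all actives have a fitted effect of over 55% in size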; also: potency is read from the fitted curve at half-maximal effect
# measurement context: MCF-7 aro ERE viability, CellTiter-Fluor, 24 h; series mostly up to 70.3 µM
Inconclusive results are not listed. The source made the active and inactive calls. Calls come from the whole dose curve; as a rule, active = well fitted cell-killing curve with a large enough effect in the repeat runs; inconclusive = weak or mixed curves, or effect the other way; inactive = no such curve, though single readings can be large or run the other way.
property: Potency

Cc1cccc(Nc2ccccc2)c1 : inactive
CCC(CC)Nc1ccc(C)c(C)c1 : inactive
C#CCN(C)CCCOc1ccc(Cl)cc1Cl : inactive
O=C1CCC(=O)O1 : inactive
C=C(C)C(=O)OCC : inactive
CCCCCCCN : inactive
O=[N+]([O-])c1ccc2[nH]ncc2c1 : inactive
CCCCC(=O)OCC(=O)[C@H]1[C@H](C)C[C@H]2[C@@H]3C[C@H](F)C4=CC(=O)C=C[C@]4(C)[C@@]3(F)[C@@H](O)C[C@@]21C : inactive
COc1cc(Cl)c(OC)cc1N : inactive
CN(C)C(=O)NC1(c2ccccc2)CCN(CC[C@@]2(c3ccc(F)c(F)c3)CN(C(=O)c3ccccc3)CCO2)CC1 : inactive

Report measured Potency; entry is CCCNCC(O)COc1ccccc1C(=O)CCc1ccccc1 (configuration not stated) inactive

For the compound COC(C)(C)CCO , report Potency. inactive

Identify measured Potency associated with O=C(OCCCCCCOC(=O)c1ccccc1)c1ccccc1 inactive

Please list Potency recorded for the compound O=C(Nc1ccccc1)c1ccccc1O inactive

Identify the reported Potency for the following entry. O=C(c1ccc(F)cc1)C1CCN(CCn2c(=S)[nH]c3ccccc3c2=O)CC1 inactive

Specify Potency for OC[C@H]1O[C@@H](OCCc2ccc(O)cc2)[C@H](O)[C@@H](O)[C@@H]1O and stop. inactive

Report Potency, nothing else, for this compound: CCNc1cc(O)ccc1C inactive

Given the compound CCOCC(O)COc1ccc(NC(=O)CC[S+](C)C)cc1 (configuration not stated) , write its reported Potency. inactive

State, in one line, measured Potency of Cc1ncc(CO)c(C=O)c1O inactive

Input CCN(CC)c1ccc2c(-c3ccccc3C(=O)O)c3ccc(=[N+](CC)CC)cc-3oc2c1 , output reported Potency. 8.63 µM (active)

Give Potency for the following compound: Nc1cccc(S(=O)(=O)c2cccc(N)c2)c1 inactive

Identify measured Potency corresponding to O=C1OC(CN2CCOCC2)CN1/N=C/c1ccc([N+](=O)[O-])o1 (configuration not stated) inactive
